Tested on: mice spleen cells
Assay: Suppression of reaction of mice spleen cells to lypopolysaccaride (LPS), in vitro (MTT)
Type: cell-based, BDF1 mice
Conditions: Mus musculus, 72 h; LPS, 312 ng/ml; read-out: Suppression rate
property-name: inhibition at 0.312 µg/mL
Note: state the figure and append the unit.

-- ask Assign inhibition at 0.312 µg/mL to the following record: CCCCCc1cccc(O)c1C1=NC(C2SCC(C(OCc3ccc(Cl)cc3)C(C)(C)C3=NC(C)(C(=O)O)CS3)N2C)CS1 (stereo not shown)
-- reply 24.4%

-- ask Quickly give me recorded inhibition at 0.312 µg/mL for CCCCCc1cccc(OC)c1C1=NC(C2SCC(C(O)C(C)(C)C3=NC(C)(C(=O)O)CS3)N2C)CS1 (stereo not shown)
-- reply 98.6%

-- ask Read the entry CCCCCc1cccc(OCOC)c1C1=NC(C2SCC(C(O)C(C)(C)C3=NC(C)(C(=O)OCOC)CS3)N2C)CS1 (stereo not shown) and write its reported inhibition at 0.312 µg/mL.
-- reply 93.4%

-- ask Indicate its recorded inhibition at 0.312 µg/mL; the molecule in question is CCCCCc1cccc(O)c1C1=NC(C2SCC(C(O)C(C)(C)C3=NC(C)(C(=O)OCOC)CS3)N2C)CS1 (stereo not shown)
-- reply 2.1%

Measured values drawn from patent US6004952A for this set.
